Source of measurements: patent US20240207421A1

# test_system: Laminin 421/521
# test: phage display, NGS count
Kindly supply the reported Count values for the records listed here.

Field request: Count | item: `EAVSTQI`
27

Would you kindly share the measured Count for `SFRNLEKLSLWS` ?
50

Given the binder `LQSNAADHHQGM` , what is its reported Count?
75

Could you tell me which Count is on file for `CFQPKMNSC` ?
42

What does the data say about its Count? Entry: `TTLWLDRDEALK`
27

Query (binder): `ALKIGPETTIYM` ; field requested: Count
35

Which measured Count value corresponds to `QGWFRHS` ?
121

Return reported Count; argument: `DGQVSDHSYVQW`
101
